molecular target: ATP-dependent translocase ABCB1 (Homo sapiens, UniProt P08183); assay: Reversal of P-gp mediated multidrug resistance in human DU145-TxR cells overexpressing P-gp assessed as potentiation of paclitaxel-induced cytotoxicity by measuring fold reduction paclitaxel IC50 at 7 uM after 48 hrs by MTT assay relative to paclitaxel alone; format: cell-based
Sequence (P08183 whole entry): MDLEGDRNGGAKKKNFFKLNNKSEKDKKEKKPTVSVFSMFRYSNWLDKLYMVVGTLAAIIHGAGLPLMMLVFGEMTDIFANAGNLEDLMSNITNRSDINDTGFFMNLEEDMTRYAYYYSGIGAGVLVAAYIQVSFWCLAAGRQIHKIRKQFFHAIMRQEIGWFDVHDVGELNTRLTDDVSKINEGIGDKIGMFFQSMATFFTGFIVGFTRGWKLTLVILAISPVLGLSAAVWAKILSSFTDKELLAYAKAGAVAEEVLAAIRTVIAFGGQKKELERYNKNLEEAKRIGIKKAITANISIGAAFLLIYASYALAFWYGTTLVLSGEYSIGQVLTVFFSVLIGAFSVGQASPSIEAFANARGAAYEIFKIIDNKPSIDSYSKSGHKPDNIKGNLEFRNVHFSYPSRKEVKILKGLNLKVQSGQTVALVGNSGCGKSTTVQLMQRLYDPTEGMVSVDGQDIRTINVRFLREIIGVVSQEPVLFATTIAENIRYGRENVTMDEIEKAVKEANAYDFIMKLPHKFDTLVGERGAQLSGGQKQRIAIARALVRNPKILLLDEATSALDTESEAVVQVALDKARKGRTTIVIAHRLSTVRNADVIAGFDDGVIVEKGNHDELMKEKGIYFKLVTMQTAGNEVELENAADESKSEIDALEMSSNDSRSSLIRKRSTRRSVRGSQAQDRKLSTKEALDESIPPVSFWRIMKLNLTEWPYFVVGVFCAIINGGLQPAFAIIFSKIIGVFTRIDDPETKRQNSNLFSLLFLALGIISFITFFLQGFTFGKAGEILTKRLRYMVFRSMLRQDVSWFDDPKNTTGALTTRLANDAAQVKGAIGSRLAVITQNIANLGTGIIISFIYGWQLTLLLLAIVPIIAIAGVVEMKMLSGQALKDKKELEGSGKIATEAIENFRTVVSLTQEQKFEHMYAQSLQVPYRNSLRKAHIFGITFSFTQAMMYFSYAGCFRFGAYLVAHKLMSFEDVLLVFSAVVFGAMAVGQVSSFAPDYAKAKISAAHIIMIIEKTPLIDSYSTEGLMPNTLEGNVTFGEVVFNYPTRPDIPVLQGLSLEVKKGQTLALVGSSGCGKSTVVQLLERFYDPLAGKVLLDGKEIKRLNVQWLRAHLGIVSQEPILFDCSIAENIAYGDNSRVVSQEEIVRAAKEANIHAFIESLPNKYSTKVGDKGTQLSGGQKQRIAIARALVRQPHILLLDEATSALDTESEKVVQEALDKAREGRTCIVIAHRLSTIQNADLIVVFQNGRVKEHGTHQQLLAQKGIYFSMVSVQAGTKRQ
As shown below, each of these compounds has a reported fold change (FC) value.
Reply briefly: the number, and no unit.

See these solved cases before continuing.
Cc1cc(C)c(-c2cc(NC(=O)CSCC(=O)c3ccc4c(c3)Cc3ccccc3-4)n(-c3ccccc3)n2)cc1C 34
Cc1cc(C)c(-c2cc(NC(=O)CSCC(=O)Nc3ccc4ncsc4c3)n(-c3ccccc3)n2)cc1C 731
Cc1cc(C)c(-c2cc(NC(=O)CSCC(=O)NC(c3ccccc3)c3ccccc3)n(-c3ccccc3)n2)cc1C 133

Attention now turns to another entry.
Q: Recorded fold change (FC) for `Cc1cc(C)c(-c2cc(NC(=O)CSCC(=O)NC34CC5CC(CC(C5)C3)C4)n(-c3ccccc3)n2)cc1C` , please?
Ans: 101

###

molecular target: ATP-dependent translocase ABCB1 (Homo sapiens); test: Ratio of inhibition of P-gp overexpressed in human DU145-TxR cells assessed as increase in intracellular compound accumulation after 2.5 hrs in presence of tariquidar by LC-MS/MS analysis to Inhibition of P-gp overexpressed in human DU145-TxR cells assessed as decrease in intracellular compound accumulation after 2.5 hrs in absence of tariquidar by LC-MS/MS analysis; format: cell-based
experimental_endpoint: Ratio
Reply briefly: the number, and no unit.

Cc1cc(C)c(-c2cc(NC(=O)CSc3cccc(NC(=O)c4cncc(Br)c4)c3)n(-c3ccccc3)n2)cc1C 1.1
Cc1cc(C)c(-c2cc(NC(=O)CSc3nnc4c(n3)[nH]c3ccccc34)n(-c3ccccc3)n2)cc1C 1
Cc1cc(C)c(-c2cc(NC(=O)CSCC(=O)N3c4ccccc4CCc4ccccc43)n(-c3ccccc3)n2)cc1C 1

Q: Recorded Ratio for `Cc1cc(C)c(-c2cc(NC(=O)CSCC(=O)Nc3ccc4ccccc4c3)n(-c3ccccc3)n2)cc1C` , please?
Ans: 0.9

Q: Recorded Ratio for `Cc1cc(C)c(-c2cc(NC(=O)CSCC(=O)NC(c3ccccc3)c3ccccc3)n(-c3ccccc3)n2)cc1C` , please?
Ans: 1.2

Q: Recorded Ratio for `COc1cc(NC(=O)CSCC(=O)Nc2cc(-c3cc(C)c(C)cc3C)nn2-c2ccccc2)cc(OC)c1OC` , please?
Ans: 1.9

Q: Recorded Ratio for `Cc1cc(C)c(-c2cc(NC(=O)CSCC(=O)Nc3ccc4ncsc4c3)n(-c3ccccc3)n2)cc1C` , please?
Ans: 1.2

###

molecular target: ATP-dependent translocase ABCB1 (Homo sapiens, UniProt P08183); test: Reversal of P-gp mediated multidrug resistance in human DU145-TxR cells overexpressing P-gp assessed as potentiation of paclitaxel-induced cytotoxicity by measuring fold reduction paclitaxel IC50 at 3 uM after 48 hrs by MTT assay relative to paclitaxel alone; format: cell-based
experimental_endpoint: fold change (FC)
Reply briefly: the number, and no unit.

Q: Recorded fold change (FC) for `Cc1cc(C)c(-c2cc(NC(=O)CSc3nnc4c(n3)[nH]c3ccccc34)n(-c3ccccc3)n2)cc1C` , please?
Ans: 5

Q: Recorded fold change (FC) for `COc1cc(NC(=O)CSCC(=O)Nc2cc(-c3cc(C)c(C)cc3C)nn2-c2ccccc2)cc(OC)c1OC` , please?
Ans: 11

Q: Recorded fold change (FC) for `Cc1cc(C)c(-c2cc(NC(=O)CSCC(=O)Nc3ccc4ccccc4c3)n(-c3ccccc3)n2)cc1C` , please?
Ans: 14

Q: Recorded fold change (FC) for `Cc1cc(C)c(-c2cc(NC(=O)CSCC(=O)c3ccc4c(c3)Cc3ccccc3-4)n(-c3ccccc3)n2)cc1C` , please?
Ans: 8

Q: Recorded fold change (FC) for `Cc1cc(C)c(-c2cc(NC(=O)CSCC(=O)NCc3ccc(F)cc3)n(-c3ccccc3)n2)cc1C` , please?
Ans: 4.6

Q: Recorded fold change (FC) for `Cc1cc(C)c(-c2cc(NC(=O)CSc3cccc(NC(=O)c4cncc(Br)c4)c3)n(-c3ccccc3)n2)cc1C` , please?
Ans: 38
